Values from patent US20230159453A1

Molecular target: SARS2 protease (Severe acute respiratory syndrome coronavirus 2, UniProt P0DTD1)
Assay: SARS-CoV-2 protease inhibition assay (SARS2 FRET protease assay)
Assay type: biochemical
Conditions: SARS-CoV-2 protease 25 nM, FRET, peptide substrate 1.3 μM, 30 minutes at 30° C., compounds 20 μM to 1.0 nM; read-out: IC50
IC50 values by entry

CC(C)C[C@H](NC(=O)OC(Cc1cccc(Cl)c1)c1ccccc1)C(=O)N[C@@H](C[C@@H]1CCNC1=O)C(=O)C(=O)N1CCCCC1 (stereo partly shown) [Compound C243]; > 20 µM
CC(C)C[C@H](NC(=O)OC(Cc1ccccc1)c1ccccc1)C(=O)N[C@@H](C[C@@H]1CCNC1=O)C(=O)C(=O)N1CCNCC1 (stereo partly shown) [Compound C283]; > 20 µM
CCOP(=O)(OCC)C(O)[C@H](CCC(=O)N1CCNC(c2ccccc2)C1)NC(=O)[C@H](CC1CCCCC1)NC(=O)OCc1cccc(Cl)c1 (stereo partly shown) [Compound C12]; > 200 µM

# evaluate next
Ask | Write down IC50 measured for item CCOP(=O)(OCC)C(O)[C@H](CCC(=O)N1CCOc2ccccc2C1)NC(=O)[C@H](CC1CCCCC1)NC(=O)N(C)Cc1cccc(Cl)c1 (stereo partly shown) [Compound C31]
Reply | > 200 µM

###

pIC50 values by entry
Biological target: SARS2 protease (Severe acute respiratory syndrome coronavirus 2)
Assay: SARS-CoV-2 protease inhibition assay (SARS2 FRET protease assay)
Format: biochemical
Conditions: SARS-CoV-2 protease 25 nM, FRET, peptide substrate 1.3 μM, 30 minutes at 30° C., compounds 20 μM to 1.0 nM; read-out: IC50
Keep it numeric: pIC50 is minus log10 of the concentration in mol/L.

Ask | Write down pIC50 measured for item CC(C)(c1cccc(Cl)c1)C(OC(=O)N[C@@H](CC1CCCCC1)C(=O)N[C@@H](C[C@@H]1CCNC1=O)C(=O)C(N)=O)c1ccc(F)cc1 (stereo partly drawn)
Reply | 5.72

Ask | Write down pIC50 measured for item CCCCC[C@H](NC(=O)OC(c1ccccc1)C(C)(C)c1cccc(Cl)c1)C(=O)N[C@H](C=O)C[C@@H]1CCNC1=O (stereo partly drawn)
Reply | 7.00

Ask | Write down pIC50 measured for item CC(C)(c1cccc(Cl)c1)C(OC(=O)N[C@@H](CC1CCCCC1)C(=O)N[C@H](C=O)C[C@@H]1CCNC1=O)c1ccc2c(c1)CCC2 (stereo partly drawn)
Reply | 7.22

###

Biological target: SARS2 protease (Severe acute respiratory syndrome coronavirus 2)
Experiment: SARS-CoV-2 protease inhibition assay (SARS2 FRET protease assay)
Type: biochemical
Settings: SARS-CoV-2 protease 25 nM, FRET, peptide substrate 1.3 μM, 30 minutes at 30° C., compounds 20 μM to 1.0 nM; read-out: IC50
IC50 values by entry

Ask | Write down IC50 measured for item CCCCCCOC(=O)N[C@@H](CC1CCCCC1)C(=O)N[C@@H](CCC(=O)N1CCOc2ccccc2C1)C(O)P(=O)(OCC)OCC (stereo partly drawn) [Compound C7]
Reply | > 200 µM

Ask | Write down IC50 measured for item O=C[C@H](CC1CCN(CCc2ccccc2)C1=O)NC(=O)[C@H](CC1CCCCC1)NC(=O)OCc1cccc(Cl)c1 (stereo partly drawn) [Compound C27]
Reply | > 200 µM

Ask | Write down IC50 measured for item CCOP(=O)(OCC)C(O)[C@H](CCC(=O)N(C)C1(Cc2ccccc2)CC1)NC(=O)[C@H](CC1CCCCC1)NC(=O)OCc1cccc(Cl)c1 (stereo partly drawn) [Compound C5]
Reply | > 200 µM
